- experimental-system: T1, human PCSK9 (proprotein convertase subtilisin kexin type 9) (human, UniProt Q8NBP7 31-692)
- T1 construct: Directly immobilized (SPR ProteOn), biotinylated (BLI), or in solution, depending on the assay; also called hPCSK9
- T1 sequence (Q8NBP7 31-692 limits assumed): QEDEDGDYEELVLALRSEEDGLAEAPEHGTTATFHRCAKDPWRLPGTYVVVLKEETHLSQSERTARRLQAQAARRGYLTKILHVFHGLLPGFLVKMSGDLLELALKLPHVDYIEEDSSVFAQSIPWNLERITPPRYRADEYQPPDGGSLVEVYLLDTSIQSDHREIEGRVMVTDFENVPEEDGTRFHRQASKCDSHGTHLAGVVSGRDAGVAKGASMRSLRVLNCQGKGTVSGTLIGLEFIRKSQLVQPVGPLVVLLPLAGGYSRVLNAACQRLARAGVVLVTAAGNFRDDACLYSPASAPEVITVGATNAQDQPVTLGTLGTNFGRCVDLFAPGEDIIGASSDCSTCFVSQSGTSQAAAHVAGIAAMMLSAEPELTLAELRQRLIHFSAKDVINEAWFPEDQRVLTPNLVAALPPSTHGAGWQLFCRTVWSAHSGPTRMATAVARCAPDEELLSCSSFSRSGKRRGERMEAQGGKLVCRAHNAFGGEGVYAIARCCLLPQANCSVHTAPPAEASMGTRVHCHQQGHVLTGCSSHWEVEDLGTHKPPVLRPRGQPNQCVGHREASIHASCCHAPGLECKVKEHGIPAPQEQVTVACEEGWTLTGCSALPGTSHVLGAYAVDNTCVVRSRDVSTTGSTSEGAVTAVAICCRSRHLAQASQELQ
- procedure-summary: SPR ProteOn, PCSK9 immobilized, 25 C
endpoint-label: koff (s⁻¹)
Report as a plain number; the unit s⁻¹ is understood.

1922G04 (designed binder, Anti-PCSK9 Adnectin, His6-tagged; also called ATI001057; ATI-1057) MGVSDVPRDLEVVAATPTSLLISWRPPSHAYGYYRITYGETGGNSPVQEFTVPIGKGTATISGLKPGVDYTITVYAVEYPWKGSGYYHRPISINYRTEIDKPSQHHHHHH :: 5.08e-05
2012A04 (designed binder, Anti-PCSK9 Adnectin, His6-tagged) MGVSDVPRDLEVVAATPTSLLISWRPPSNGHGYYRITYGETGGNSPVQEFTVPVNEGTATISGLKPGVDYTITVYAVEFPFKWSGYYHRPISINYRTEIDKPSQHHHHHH :: 6.47e-05
1459D05 (designed binder, also called ATI000891; ATI-891) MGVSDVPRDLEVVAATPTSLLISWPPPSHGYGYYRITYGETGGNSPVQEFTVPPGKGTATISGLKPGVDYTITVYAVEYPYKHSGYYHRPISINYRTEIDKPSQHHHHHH :: 0.00018

Okay, now this binder:
Data request: Quick one: koff of 2011H05 (designed binder, Anti-PCSK9 Adnectin, His6-tagged; also called ATI001091) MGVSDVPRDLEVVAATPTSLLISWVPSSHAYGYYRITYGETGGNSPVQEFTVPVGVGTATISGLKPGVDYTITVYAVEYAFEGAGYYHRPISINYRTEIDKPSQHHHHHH ?
Data returned: 9.76e-06

Every entry's value here was drawn from patent US20120094909A1.
